All figures here come from patent US20230372335A1.

# Test Method Notes: CSF concentration of study drug (pharmacokinetics), NCT04240158
# Format: in vivo, human
# Test Conditions: human, CSF; 15 mg oral once daily, 5-hrs post last dose
Observation Type: concentration at 5 h (nM)
The figure you give is taken to be in nM; do not add the unit.

Name the reported concentration at 5 h value associated with the compound Fc1ccccc1Cc1nc(-c2nc(C(F)(F)F)n[nH]2)cn2ccnc12 [Compound I]
77
